Can you tell me relative viability for the items I'm about to list?
test system: EMC-BAC-2; experiment: relative viability (nuclei count vs DMSO), 5 days (fraction); higher = more cells survive; conditions: first compound 0.4 µM
Simply state the number, no unit and no words.

Input Cc1sc2c(c1C)C(c1ccc(Cl)cc1)=N[C@@H](CC(=O)OC(C)(C)C)c1nnc(C)n1-2 [JQ1] + O=C(CCCCCCC(=O)Nc1ccccc1)NO [Vorinostat] (partner 1 µM) . Output relative viability: 0.367

Input Cc1sc2c(c1C)C(c1ccc(Cl)cc1)=N[C@@H](CC(=O)OC(C)(C)C)c1nnc(C)n1-2 [JQ1] + CS(=O)(=O)CCNCc1ccc(-c2ccc3ncnc(Nc4ccc(OCc5cccc(F)c5)c(Cl)c4)c3c2)o1 [Lapatinib] (partner 2 µM) . Output relative viability: 0.949

Input Cc1sc2c(c1C)C(c1ccc(Cl)cc1)=N[C@@H](CC(=O)OC(C)(C)C)c1nnc(C)n1-2 [JQ1] + NC(=O)Nc1cc(-c2cccc(F)c2)sc1C(=O)N[C@H]1CCCNC1 [AZD7762] (partner 0.2 µM) . Output relative viability: 0.975

Input Cc1sc2c(c1C)C(c1ccc(Cl)cc1)=N[C@@H](CC(=O)OC(C)(C)C)c1nnc(C)n1-2 [JQ1] + Cc1nc(Nc2ncc(C(=O)Nc3c(C)cccc3Cl)s2)cc(N2CCN(CCO)CC2)n1 [Dasatinib] (partner 0.075 µM) . Output relative viability: 0.254

---

system: NCI-H1993; test: relative viability (nuclei count vs DMSO), 5 days (fraction); higher = more cells survive; conditions: first compound 0.5 µM
Can you tell me relative viability for the items I'm about to list?
Simply state the number, no unit and no words.

Input COc1cc2nccc(Oc3ccc(NC(=O)Nc4cc(C)on4)c(Cl)c3)c2cc1OC [Tivozanib] + O=C(c1cc(Cc2n[nH]c(=O)c3ccccc23)ccc1F)N1CCN(C(=O)C2CC2)CC1 [Olaparib] (partner 8 µM) . Output relative viability: 1.1

Input COc1cc2nccc(Oc3ccc(NC(=O)Nc4cc(C)on4)c(Cl)c3)c2cc1OC [Tivozanib] + Cc1cc(Nc2cc(N3CCN(C)CC3)nc(Sc3ccc(NC(=O)C4CC4)cc3)n2)n[nH]1 [Tozasertib] (partner 0.1 µM) . Output relative viability: 0.513

Input Nc1ccn([C@@H]2O[C@H](CO)[C@@H](O)[C@@H]2O)c(=O)n1 [Cytarabine] + CS(=O)(=O)CCNCc1ccc(-c2ccc3ncnc(Nc4ccc(OCc5cccc(F)c5)c(Cl)c4)c3c2)o1 [Lapatinib] (partner 2 µM) . Output relative viability: 0.546

Input Nc1ccn([C@@H]2O[C@H](CO)[C@@H](O)[C@@H]2O)c(=O)n1 [Cytarabine] + COc1cccc2cc(-c3nc([C@H]4CC[C@H](C(=O)O)CC4)n4ncnc(N)c34)[nH]c12 [OSI-027] (partner 0.5 µM) . Output relative viability: 0.498

Input Nc1ccn([C@@H]2O[C@H](CO)[C@@H](O)[C@@H]2O)c(=O)n1 [Cytarabine] + CC1(C)CCC(c2ccc(Cl)cc2)=C(CN2CCN(c3ccc(C(=O)NS(=O)(=O)c4ccc(N[C@H](CCN5CCOCC5)CSc5ccccc5)c(S(=O)(=O)C(F)(F)F)c4)cc3)CC2)C1 [Navitoclax] (partner 0.5 µM) . Output relative viability: 0.624

Input Nc1ccn([C@@H]2O[C@H](CO)[C@@H](O)[C@@H]2O)c(=O)n1 [Cytarabine] + C[C@@H](Oc1cc(-c2cnn(C3CCNCC3)c2)cnc1N)c1c(Cl)ccc(F)c1Cl [Crizotinib] (partner 1 µM) . Output relative viability: 0.566
